- methodNotes: NCI Yeast Anticancer Drug Screen. Data for the bub3 strain (AID 167)
- runConditions: S. cerevisiae bub3 mutant strain, at 50.0 µM, active compounds read high
The panel holds about 79,000 compounds, 15% with a hit somewhere; the sample as a whole holds those more often.
Think of 80% as a floor: if growth inhibition stands on it or above, it is Fulfilled; beneath it, Not fulfilled.

{"columns": ["compound", "groupLabel"],
 "data": [
  ["O=C(O)c1cccc(S(=O)(=O)NN2C(=O)CSC2c2c(O)ccc3ccccc23)c1 (stereo not drawn)", "Fulfilled"],
  ["Cc1cc(N)c(C)c2c1[nH]c1ccc(Br)cc12", "Fulfilled"],
  ["Cc1cc(N)c2cc(OCCOc3ccc4nc(C)cc(N)c4c3)ccc2n1", "Fulfilled"],
  ["C=C1C(=O)OC2C1CCC(=C)C1CC(O)C(=C)C12 (stereo not drawn)", "Fulfilled"],
  ["CC1(c2ccccc2)OC(=O)C=CC1=O (stereo not drawn)", "Fulfilled"],
  ["CC12CCc3ccccc3C1=Nc1ccccc12 (stereo not drawn)", "Fulfilled"],
  ["C=CCOC(=O)CC(O)C(=O)OCC=C (stereo not drawn)", "Not fulfilled"],
  ["CC1=NN(c2ccccc2)C(=O)C1N=Nc1cc(Cl)cc(S(=O)(=O)O)c1O (stereo not drawn)", "Not fulfilled"],
  ["[O-][n+]1c2ccccc2nc2cc(Cl)ccc21", "Not fulfilled"],
  ["Clc1ccc(CN2COc3c(cc(Cl)c4cccnc34)C2)cc1Cl", "Not fulfilled"],
  ["CCCCC(C)(C)OC(=O)Nc1ccc(Br)cc1", "Not fulfilled"],
  ["NC(=O)NCCCCC1NC(=S)N(c2ccccc2)C1=O (stereo not drawn)", "Not fulfilled"],
  ["COC(=O)c1nc(=S)[nH]c(C(=O)OC)c1C(=O)c1c(C)[nH]c2ccccc12", "Not fulfilled"],
  ["c1ccc(OCC2c3ccccc3Nc3ccccc32)cc1", "Not fulfilled"],
  ["O=C(c1ccc(F)cc1)c1ccc(Cl)cc1Cl", "Fulfilled"],
  ["CCOC(=O)N1CCN(CCCCCCOc2ccc(C(C)(C)C)cc2)CC1", "Fulfilled"],
  ["CC(=O)CC(C)=NCCN=C(C)CC(C)=O.[Pd]", "Not fulfilled"],
  ["CC(C)(C)c1cc2c(c(C(C)(C)C)c1O)CC(=O)O2", "Not fulfilled"]
]}

---

Entries annotated with measured growth inhibition
- methodNotes: NCI Yeast Anticancer Drug Screen. Data for the sgs1 mgt1 strain (AID 161);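 note: 0% = growth of cultures given vehicle only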
- runConditions: S. cerevisiae sgs1 mgt1 strain, at 50.0 µM (retest, dose inferred, filed as 5.0), active compounds read high
The panel holds about 79,000 compounds, 15% with a hit somewhere; the sample as a whole holds those more often.

{"columns": ["compound", "unit", "growth inhibition"],
 "data": [
  ["C[N+](C)(C)CC(=O)N/N=C/c1oc(-c2c(O)ccc3ccccc23)c(-c2c(O)ccc3ccccc23)c1[N+](=O)[O-]", "%", 51],
  ["Nc1ccc2ccccc2c1N=Nc1ccccc1", "%", 98],
  ["O=[N+]([O-])c1c(I)ccc2ccccc12", "%", 95],
  ["NC(=S)C(=Nc1ccccc1F)Nc1ccccc1F", "%", 70],
  ["CSc1nc2c(c(=O)[nH]1)C1C=C(C)CCC1C(C)(C)C2 (stereo not given)", "%", 97],
  ["CC(C)NC(=O)O/N=C1\\CCC2[C@@H]3CC=C4C[C@@H](OC(=O)NC(C)C)CC[C@]4(C)C3CC[C@]12C (stereo not given in full)", "%", 73],
  ["CCOC(=O)C(=Cc1ccccc1)C(=O)OCC", "%", 92],
  ["CCCCN1CCN(c2ccc([N+](=O)[O-])c3no[n+]([O-])c23)CC1", "%", 99],
  ["CN(C)C(=O)/C=C/c1c[nH]c(=O)[nH]c1=O", "%", -68],
  ["O=C1/C(=C/c2ccccc2Cl)COc2ccccc21", "%", 97],
  ["CCOC(=O)/N=C(\\N)SCc1ccccc1", "%", -8],
  ["O=C1C(Cl)=C(N2C(=O)CCC2=O)C(=O)c2ccccc21", "%", 100],
  ["CC(=O)Nc1cc(Cl)c2c(c1)C(=O)c1ccccc1-2", "%", 77],
  ["CS(=O)(=O)OC1C(O)C(n2cnc3c(N)ncnc32)C(O)C(OS(C)(=O)=O)C1OS(C)(=O)=O (stereo not given)", "%", -1],
  ["ClCC1CSC2(CCCCC2)O1 (stereo not given)", "%", -8],
  ["c1ccc(CCNCc2ccco2)nc1", "%", -26],
  ["O=C(O)C(Cc1cc(I)c(O)c(I)c1)c1ccccc1 (stereo not given)", "%", 38],
  ["Cn1cnc2[nH]c(Cl)nc(=S)c21", "%", 0],
  ["O=C1CCC(O)N1CN1C(=O)CCC1O (stereo not given)", "%", -3],
  ["CC1=C/C(=C\\c2ccc([N+](=O)[O-])o2)C(=O)O1", "%", 52],
  ["O=C1NN(C2=NNC3(C(=O)N2)c2ccccc2-c2ccccc23)C(c2ccccc2)=N/C1=C/c1ccc(Cl)cc1", "%", 6],
  ["O=C(c1ccccc1)N(C1CCCCC1)C1CCCCC1", "%", 97],
  ["C=C1C(=O)O[C@H]2C3C(=C(C)CC[C@@H]12)C(=O)[C@@H]1OC31C (stereo not given in full)", "%", 74],
  ["Cc1ccc(O)c(C(c2cc(C)ccc2O)c2ccccc2Cl)c1", "%", 99],
  ["CC(=O)N=C1N(/C=C2\\C(=O)Oc3ccccc3C2=O)C(=O)/C(=C/c2cccc(Cl)c2Cl)N1C", "%", 8],
  ["O=C1C=CC(=O)N1CCCCCCN1C(=O)C=CC1=O", "%", 99],
  ["CC1(C)OC2C(COC(c3ccccc3)(c3ccccc3)c3ccccc3)OC(n3ccc(=O)[nH]c3=O)C2O1 (stereo not given)", "%", 56],
  ["COc1ccc(N(C)Sc2ccccc2)cc1", "%", 24],
  ["Cc1nc2c(O)c3c(c(O)c2nc1C)C1C=CC3CC1", "%", 84],
  ["C=CCOC(=O)CCC(=O)N(CC)CC", "%", -11],
  ["C/C(=N\\NC(N)=S)c1ccc(Oc2ccccc2)cc1", "%", 93],
  ["CCNc1cc2c3c(c1)CCCN3CCC2", "%", 18],
  ["CCCCCCCCCCCCCCCCCC[n+]1ccc(C(C)CC)cc1 (stereo not given)", "%", 97],
  ["COc1ccc2c(c1)[n+]([O-])c(C(N)=O)c(N)[n+]2[O-]", "%", 99],
  ["Cc1cc2oc3c(ccc(=O)n3C)c(=O)c2c(C)c1Cl", "%", 21]
]}

---

- methodNotes: NCI Yeast Anticancer Drug Screen. Data for the mlh1 rad18 strain (AID 175)
- runConditions: S. cerevisiae mlh1 rad18 strain growth inhibition; at 50.0 µM (retest, dose inferred, filed as 5.0); active compounds read high
About 79,000 compounds went through this panel and 15% of them were active in at least one assay; those are over-represented in the sample as a whole.

{"columns": ["compound", "unit", "growth inhibition"],
 "data": [
  ["CCc1[nH]c2ccccc2c1N1C(=O)CC2(CCN(Cc3ccccc3)CC2)CC1=O", "%", 10],
  ["CSC(=S)n1nc(-c2cccs2)c(N=Nc2ccc(Cl)cc2)c1C(F)(F)F", "%", 56],
  ["CC(=O)OC1CCCCCCCCCCC12OCCO2 (configuration not stated)", "%", 96],
  ["c1ccc([P+](c2ccccc2)(c2ccccc2)C2CCCC2)cc1", "%", 32],
  ["CC(C)(C)C1=NN=C2c3ccccc3C(=O)C21 (configuration not stated)", "%", 44],
  ["COc1cc2cc[n+]3c4ccc([N+](=O)[O-])cc4ccc3c2cc1OC", "%", 69],
  ["CCCCCCCCCCCCCCCCP(=O)([O-])OCC[N+](C)(C)C", "%", 98]
]}

---

- methodNotes: NCI Yeast Anticancer Drug Screen. Data for the cln2 rad14 strain (AID 165);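 note: 0% = growth equal to vehicle treated cultures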
- runConditions: S. cerevisiae cln2 rad14 strain, at 50.0 µM, active compounds read high
This is part of a sample that, as a whole, favours compounds with a hit. Of some 79,000 tested, about 15% had one in any assay.
Entry class follows growth inhibition: low class (below 30%), middle class (30% to below 90%), high class (90% or more)

{"columns": ["compound", "groupLabel"],
 "data": [
  ["NC(=O)c1ccc[n+](CC(=O)Nc2ccc(Cl)cc2)c1", "low class"],
  ["Cc1cc(N(CCOS(C)(=O)=O)CCOS(C)(=O)=O)ccc1C=Nc1cccc(Cl)c1", "low class"],
  ["COC(=O)c1c[nH]c2ccc(Br)cc12", "middle class"],
  ["Cc1cc(Cl)nc2ccc(Cc3ccc4nc(Cl)cc(C)c4c3)cc12", "low class"],
  ["CC(CN(C)C)C(=O)c1cn(C)c2ccccc12 (configuration not stated)", "low class"],
  ["CC[C@@]1(OP(=O)(O)O)C(=O)OCc2c1cc1n(c2=O)Cc2cc3ccccc3nc2-1", "middle class"],
  ["CC(=O)Oc1c(-c2ccccc2)cc([N+](=O)[O-])cc1[N+](=O)[O-]", "middle class"],
  ["O=C1CNC(=O)c2cc(N=Cc3cc(Br)ccc3O)ccc2N1", "low class"],
  ["O=C(Nc1ccc(C2=NCCN2)cc1)c1ccc(C(=O)Nc2ccc(C3=NCCN3)cc2)c(Cl)c1", "middle class"],
  ["O=C1C=C(O)c2cc(Br)ccc2C1=O.[Ag]", "high class"],
  ["CS(=O)c1cc(=O)c2ccccc2s1 (configuration not stated)", "middle class"],
  ["COC(=O)N/N=C(\\c1ccc(O)cc1)C(C)C1(O)C(=O)Nc2ccccc21 (configuration not stated)", "low class"],
  ["Cc1ccc(/[N+]([O-])=C/c2ccccc2)cc1", "middle class"],
  ["c1ccc2c(c1)ccc1ncccc12", "low class"],
  ["O=c1ccc2c(COc3ccc(Cl)cc3Cl)c3ccc(O)cc3oc-2c1", "low class"],
  ["O=c1c2cccc3cccc(c4oc5c6cccc7cccc(c(=O)c5c14)c76)c32", "high class"],
  ["Cc1cccc(/C=N/NC(=S)Nc2ccc(Cl)cc2)n1", "middle class"],
  ["CCOC(=O)c1cc(Cc2ccccc2)c(=O)n(C)c1-c1ccccc1", "low class"],
  ["CCCCCCCCCC1OCC(O)CO1 (configuration not stated) (tested in a mixture with another compound)", "middle class"],
  ["O=C(c1ccc(O)c(Br)c1)c1cc(Br)ccc1O", "high class"],
  ["CCCCCCCCCCCCNC(=O)c1cc[n+](Cc2ccc(Cl)c(Cl)c2)cc1", "high class"],
  ["CC(=O)Nc1ccc2c(c1)C(S)c1ccccc1-2 (configuration not stated)", "middle class"],
  ["COc1ccc2c(c1)CCC/C2=N\\NS(=O)(=O)c1c(C)cc(C)cc1C", "middle class"],
  ["c1ccc([B-](c2ccccc2)(c2ccccc2)c2ccccc2)cc1", "high class"],
  ["CN(C)c1ccc(/C=C(/C#N)c2ccc(Cl)cc2)cc1", "middle class"],
  ["O=C1CC(O)C=C1Nc1ccc(Cl)cc1 (configuration not stated)", "high class"],
  ["CCOC(=O)c1cc2c(nc1NCc1ccc(OC)c(OC)c1)/C(=C/c1ccccc1)CCCC2", "middle class"],
  ["CC(CN1CCCCCCC1)C(c1ccccc1)c1ccccc1 (configuration not stated)", "high class"],
  ["C=C1C2Oc3ccccc3C1N(c1ccccc1)O2 (configuration not stated)", "middle class"],
  ["CN(C)CC(CN(C)C)C(=O)c1ccc(Oc2ccc(Cl)cc2)cc1", "low class"],
  ["CC1=C(\\C=C/C(C)=N/N=C(C)\\C=C\\C2=C(C)CCCC2(C)C)C(C)(C)CCC1", "low class"],
  ["CC(O)CC(O)CC1CCCO1 (configuration not stated)", "middle class"],
  ["COc1ccnc2c1C(=O)c1nc3ccccc3c3ccnc-2c13", "middle class"]
]}

Origin of the recorded values: PubChem BioAssay (NCI)
